system: MDA-MB-231; test: Cytotoxicity against human MDA-MB-231 cells after 72 hrs by MTT assay; format: functional, cell-based; details: MDA-MB-231, 72 h
pIC50: −log10 of the molar value.
READOUT_LABEL: pIC50

>  <COMPOUND_STRING>
COC(=O)[C@H](Cc1cn(C)cn1)NC(=O)[C@@H](NC(=O)Nc1cc(C(F)(F)F)cc(C(F)(F)F)c1)C(C)(C)C

>  <TEST_RESULT>
5.03

$$$$
>  <COMPOUND_STRING>
COC(=O)[C@H](Cc1cn(C)cn1)NC(=O)[C@H](Cc1ccccc1)NC(=O)Nc1cc(C(F)(F)F)cc(C(F)(F)F)c1

>  <TEST_RESULT>
5.17

$$$$
>  <COMPOUND_STRING>
COC(=O)[C@H](Cc1cn(C)cn1)NC(=O)[C@@H](NC(=O)Nc1cc(C(F)(F)F)cc(C(F)(F)F)c1)C(C)C

>  <TEST_RESULT>
4.81

$$$$
>  <COMPOUND_STRING>
COC(=O)[C@H](Cc1cn(C)cn1)NC(=O)[C@H](CC(C)C)NC(=O)Nc1cc(C(F)(F)F)cc(C(F)(F)F)c1

>  <TEST_RESULT>
4.97

$$$$
>  <COMPOUND_STRING>
CCn1cnc(C[C@H](NC(=O)[C@@H](NC(=O)Nc2cc(C(F)(F)F)cc(C(F)(F)F)c2)C(C)C)C(=O)OC)c1

>  <TEST_RESULT>
5.12

$$$$
>  <COMPOUND_STRING>
CC[C@H](C)[C@H](NC(=O)Nc1cc(C(F)(F)F)cc(C(F)(F)F)c1)C(=O)N[C@@H](Cc1cn(C)cn1)C(=O)OC

>  <TEST_RESULT>
5.19

$$$$
